# test-method-notes: protein stability index of a GFP-peptide fusion (GPS, HEK-293T) (PSI 1-6); higher = more stable;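 note: 24-mer peptide tiles fused after GFP, lentivirally expressed, FACS-sorted into six equal bins by GFP/DsRed ratio, decoded by Illumina sequencing, PSI is the read-weighted mean bin number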
# condition: treatment: MLN4924 1 uM, 8 h; c terminus: a fixed tail appended
So I've got a bunch of sequences here, and I need their protein stability index values.
Please give only the number in your answer, with no unit.

**Q:** Consider the sequence TWVTVKNGSGDMIFEGNSEKEIPV [CPXM2] . State its measured protein stability index.
**A:** 3.9

**Q:** Provide protein stability index value for the following sequence: LKKSRGKFIKPWESPDEMELDELL [PTPRD]
**A:** 3.15

**Q:** Supply reported protein stability index belonging to this sequence: AVFRFWAGGEKGPQAFPMSRLWDS [DNAAF3]
**A:** 2.18

**Q:** Dear colleague, please send me the reported protein stability index for PPLWAASAAGHLDVVRSLLRRGAS [FEM1A] when you can.
**A:** 3.43

**Q:** Provide one value: measured protein stability index of HPANRSCRETGSFLDLFRYRVLLG [SLC22A15]
**A:** 2.15

**Q:** Give protein stability index for the following sequence: MLRSGLSGLGSCLPGSYLSSECHT [KRT36]
**A:** 2.37

**Q:** Determine from records and report protein stability index for QAIIESCSRQFPEFQERARKRIRT [NOL4L]
**A:** 4.09

**Q:** Note down protein stability index recorded for CRKAKEIRKERKRLKLMQQNPAGE [ATE1]
**A:** 4.37

**Q:** For the sequence MLATRNFSGGKSGGNKKSDGVKES [CAMK2A] , give its measured protein stability index value.
**A:** 4.54

**Q:** Specify protein stability index for QDCGFEHLVPVIEMWADQLTSLKD [CEP70] and stop.
**A:** 2.94

**Q:** Look up and report measured protein stability index for this entry: LHIPMYFFLAILSCSEICYTFIIV [OR10K2]
**A:** 3.18

**Q:** Quote protein stability index reported for DVYSFAIVIWGVLTQKKPFADEKN [RIPK4] please.
**A:** 1.86

**Q:** Provide measured protein stability index value, entry: DSIKDEDRTSLATFHEGKHNISHM [WDFY1]
**A:** 4.59

FYI, the data here is from the supplement of paper PMC10567573.
